This collection of values is drawn from patent US9125430B2.

Kindly state concentration 5-Z for each of the entries shown.
measurement description: Stability of pure lycopene isomers in n-hexane during storage at room temperature
Type: physicochemical
experimental parameters: n-hexane, room temperature, absence of light, 1 day
Protocol: Pure 5-Z, 9-Z, 13-Z and all-E lycopene were isolated from isomerised tomato oleoresin (submitted to 1 hour heating), by collecting the fractions containing the corresponding peaks after HPLC separation (see below the experimental conditions). […] Amount of total lycopene was determined by reverse phase HPLC on a C18 precolumn (ODS Hypersil, 5 μm, 20×4 mm; Hewlett Packard, Geneva, Switzerland) and a C18 column (Nova pak, 3.9 μm i.d.×300 mm length, Millipore, Volketswil, Switzerland). […]

Reported concentration 5-Z of CC(C)=CCC/C(C)=C/C=C/C(C)=C/C=C/C(C)=C\C=C\C=C(C)\C=C\C=C(C)\C=C\C=C(/C)CCC=C(C)C [13-Z lycopene] : 0 % of total isomers

Reported concentration 5-Z of CC(C)=CCC/C(C)=C/C=C/C(C)=C/C=C/C(C)=C/C=C/C=C(C)/C=C/C=C(C)/C=C/C=C(\C)CCC=C(C)C [all-E lycopene] : 1.2 % of total isomers

Reported concentration 5-Z of CC(C)=CCC\C(C)=C/C=C/C(C)=C/C=C/C(C)=C/C=C/C=C(C)/C=C/C=C(C)/C=C/C=C(\C)CCC=C(C)C [5-Z lycopene] : 84.3 % of total isomers

Reported concentration 5-Z of CC(C)=CCC/C(C)=C/C=C/C(C)=C\C=C\C(C)=C\C=C\C=C(C)\C=C\C=C(C)\C=C\C=C(/C)CCC=C(C)C [9-Z lycopene] : 2.1 % of total isomers

----------
measurement description: Stability of pure lycopene isomers in n-hexane during storage at room temperature
Assay type: physicochemical
experimental parameters: n-hexane, room temperature, absence of light, 12 days
Kindly state concentration 5-Z for each of the entries shown.

Reported concentration 5-Z of `CC(C)=CCC/C(C)=C/C=C/C(C)=C\C=C\C(C)=C\C=C\C=C(C)\C=C\C=C(C)\C=C\C=C(/C)CCC=C(C)C` : 2.3 % of total isomers

Reported concentration 5-Z of `CC(C)=CCC/C(C)=C/C=C/C(C)=C/C=C/C(C)=C\C=C\C=C(C)\C=C\C=C(C)\C=C\C=C(/C)CCC=C(C)C` : 5.3 % of total isomers

Reported concentration 5-Z of `CC(C)=CCC\C(C)=C/C=C/C(C)=C/C=C/C(C)=C/C=C/C=C(C)/C=C/C=C(C)/C=C/C=C(\C)CCC=C(C)C` : 65.3 % of total isomers

Reported concentration 5-Z of `CC(C)=CCC/C(C)=C/C=C/C(C)=C/C=C/C(C)=C/C=C/C=C(C)/C=C/C=C(C)/C=C/C=C(\C)CCC=C(C)C` : 6.4 % of total isomers

----------
measurement description: Stability of pure lycopene isomers in n-hexane during storage at room temperature
Format: physicochemical
experimental parameters: n-hexane, room temperature, absence of light, 0 days
Kindly state concentration 5-Z for each of the entries shown.

Reported concentration 5-Z of `CC(C)=CCC/C(C)=C/C=C/C(C)=C\C=C\C(C)=C\C=C\C=C(C)\C=C\C=C(C)\C=C\C=C(/C)CCC=C(C)C` : 1.8 % of total isomers

Reported concentration 5-Z of `CC(C)=CCC\C(C)=C/C=C/C(C)=C/C=C/C(C)=C/C=C/C=C(C)/C=C/C=C(C)/C=C/C=C(\C)CCC=C(C)C` : 95.5 % of total isomers

Reported concentration 5-Z of `CC(C)=CCC/C(C)=C/C=C/C(C)=C/C=C/C(C)=C/C=C/C=C(C)/C=C/C=C(C)/C=C/C=C(\C)CCC=C(C)C` : 0.5 % of total isomers

Reported concentration 5-Z of `CC(C)=CCC/C(C)=C/C=C/C(C)=C/C=C/C(C)=C\C=C\C=C(C)\C=C\C=C(C)\C=C\C=C(/C)CCC=C(C)C` : 0 % of total isomers
